- target system: T1, β-catenin (UniProt P35222 134-665, limits assumed, biotinylated in the SPR and plate assays)
- T1 sequence (looked up): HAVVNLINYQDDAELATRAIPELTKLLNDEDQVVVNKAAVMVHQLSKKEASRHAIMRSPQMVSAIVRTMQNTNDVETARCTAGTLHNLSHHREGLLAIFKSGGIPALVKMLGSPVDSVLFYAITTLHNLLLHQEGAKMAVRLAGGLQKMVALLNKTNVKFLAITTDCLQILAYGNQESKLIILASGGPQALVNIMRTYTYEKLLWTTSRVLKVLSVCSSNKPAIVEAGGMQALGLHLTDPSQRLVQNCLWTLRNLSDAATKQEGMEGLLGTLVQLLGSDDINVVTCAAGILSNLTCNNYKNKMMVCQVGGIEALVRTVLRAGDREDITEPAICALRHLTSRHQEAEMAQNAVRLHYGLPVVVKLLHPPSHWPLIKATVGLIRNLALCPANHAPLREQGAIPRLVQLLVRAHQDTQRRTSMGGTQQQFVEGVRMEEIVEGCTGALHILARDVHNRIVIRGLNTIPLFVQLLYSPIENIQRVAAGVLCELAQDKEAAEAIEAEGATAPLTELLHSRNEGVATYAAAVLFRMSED
- assay details: cell-based or functional assay
Bridges are numbered along the chain shown (N, C = ends). Where no end group is shown, it is not given here. [ ]: non-standard residue; d: D form. The star is where a group is joined. Palmitoyl = CCCCCCCCCCCCCCCC(=O)*; Chg = N[C@H](C(=O)O)C1CCCCC1; Lauroyl = CCCCCCCCCCCC(=O)*; NMeA = CN[C@@H](C)C(=O)O
I'd appreciate it if you could supply Wnt Reporter EC50 values for the items below.

# input Find the measured Wnt Reporter EC50 of Lauroyl-W[NMeA]QSILDEH[Chg]QKVW-NH2 (lactam 8-12; not fully specified; printed as Lauroyl-NH-W-NMeA-QSILDE*H-Chg-QK*VW-NH2) [SEQ ID NO: 467] and report it.
# output ≤ 7.5 µM

# input Find the measured Wnt Reporter EC50 of MQRMWFLISFW-NH2 [SEQ ID NO: 74] and report it.
# output > 30 µM

# input Find the measured Wnt Reporter EC50 of MSRWWFLISFW-NH2 [SEQ ID NO: 78] and report it.
# output > 30 µM

# input Find the measured Wnt Reporter EC50 of H-DWFLICFWG-OH [SEQ ID NO: 142] and report it.
# output ≤ 7.5 µM

# input Find the measured Wnt Reporter EC50 of KMPLAISWFEHIG (HELM PEPTIDE1{K.M.P.L.[meA].I.S.W.F.E.H.I.G}$PEPTIDE1,PEPTIDE1,1:R3-13:R2$$$V2.0; SMILES CC[C@H](C)[C@@H]1NC(=O)[C@H](Cc2c[nH]cn2)NC(=O)[C@H](CCC(=O)O)NC(=O)[C@H](Cc2ccccc2)NC(=O)[C@H](Cc2c[nH]c3ccccc23)NC(=O)[C@H](CO)NC(=O)[C@H]([C@@H](C)CC)NC(=O)[C@H](C)N(C)C(=O)[C@H](CC(C)C)NC(=O)[C@@H]2CCCN2C(=O)[C@H](CCSC)NC(=O)[C@@H](N)CCCCNC(=O)CNC1=O) [SEQ ID NO: 29] and report it.
# output > 30 µM

# input Find the measured Wnt Reporter EC50 of KMWFLICEWG (HELM PEPTIDE1{K.M.W.F.L.I.C.E.W.G}$PEPTIDE1,PEPTIDE1,1:R3-8:R3$$$V2.0; SMILES CC[C@H](C)[C@@H]1NC(=O)[C@H](CC(C)C)NC(=O)[C@H](Cc2ccccc2)NC(=O)[C@H](Cc2c[nH]c3ccccc23)NC(=O)[C@H](CCSC)NC(=O)[C@@H](N)CCCCNC(=O)CC[C@@H](C(=O)N[C@@H](Cc2c[nH]c3ccccc23)C(=O)NCC(=O)O)NC(=O)[C@H](CS)NC1=O) [SEQ ID NO: 180] and report it.
# output ≤ 7.5 µM

# input Find the measured Wnt Reporter EC50 of H-MSRMWFLTSFWG-OH [SEQ ID NO: 62] and report it.
# output > 30 µM

# input Find the measured Wnt Reporter EC50 of Palmitoyl-PQKILDEH[Chg]QRVMK-NH2 (bridge 3-7; also: K3* and E7* marked (linkage not given here)) [SEQ ID NO: 490] and report it.
# output ≤ 7.5 µM

# input Find the measured Wnt Reporter EC50 of H-MIRMWFLICAWG-OH [SEQ ID NO: 166] and report it.
# output > 30 µM

# input Find the measured Wnt Reporter EC50 of MSRMWFLISFW-NH2 [SEQ ID NO: 72] and report it.
# output > 30 µM

# input Find the measured Wnt Reporter EC50 of WSRKWFLISFW-NH2 [SEQ ID NO: 90] and report it.
# output > 30 µM

# input Find the measured Wnt Reporter EC50 of LWFLICFWG (HELM PEPTIDE1{[Nle].W.F.L.I.C.F.W.G}$$$$V2.0; SMILES CCCC[C@H](N)C(=O)N[C@@H](Cc1c[nH]c2ccccc12)C(=O)N[C@@H](Cc1ccccc1)C(=O)N[C@@H](CC(C)C)C(=O)N[C@H](C(=O)N[C@@H](CS)C(=O)N[C@@H](Cc1ccccc1)C(=O)N[C@@H](Cc1c[nH]c2ccccc12)C(=O)NCC(=O)O)[C@@H](C)CC) [SEQ ID NO: 164] and report it.
# output ≤ 7.5 µM

# input Find the measured Wnt Reporter EC50 of H-MSRMWFLNSFWG-OH [SEQ ID NO: 70] and report it.
# output > 30 µM

# input Find the measured Wnt Reporter EC50 of H-MWILISYWG-OH [SEQ ID NO: 152] and report it.
# output ≤ 7.5 µM

# input Find the measured Wnt Reporter EC50 of KMWFLICFWE (HELM PEPTIDE1{[ac].K.M.W.F.L.I.C.F.W.E}$PEPTIDE1,PEPTIDE1,2:R3-11:R3$$$V2.0; SMILES CC[C@H](C)[C@@H]1NC(=O)[C@H](CC(C)C)NC(=O)[C@H](Cc2ccccc2)NC(=O)[C@H](Cc2c[nH]c3ccccc23)NC(=O)[C@H](CCSC)NC(=O)[C@@H](NC(C)=O)CCCCNC(=O)CC[C@@H](C(=O)O)NC(=O)[C@H](Cc2c[nH]c3ccccc23)NC(=O)[C@H](Cc2ccccc2)NC(=O)[C@H](CS)NC1=O) [SEQ ID NO: 186] and report it.
# output > 30 µM

# input Find the measured Wnt Reporter EC50 of Ac-WFLIAFWG-OH [SEQ ID NO: 196] and report it.
# output ≤ 7.5 µM

# input Find the measured Wnt Reporter EC50 of MWALISFWG (HELM PEPTIDE1{[ac].M.W.[Cha].L.I.S.F.W.G}$$$$V2.0; SMILES CC[C@H](C)[C@H](NC(=O)[C@H](CC(C)C)NC(=O)[C@H](CC1CCCCC1)NC(=O)[C@H](Cc1c[nH]c2ccccc12)NC(=O)[C@H](CCSC)NC(C)=O)C(=O)N[C@@H](CO)C(=O)N[C@@H](Cc1ccccc1)C(=O)N[C@@H](Cc1c[nH]c2ccccc12)C(=O)NCC(=O)O) [SEQ ID NO: 216] and report it.
# output ≤ 7.5 µM
